System: E. coli BW25113 waaF::kan
Assay type: cell-based, Escherichia coli
Details: Table 3; BW25113 waaF::kan; Mueller-Hinton-II, 16–20 h; duplicates (*) or triplicates
Where no end group is shown, it is not given here.
assayReadout: MIC (µg/mL)
Only the number, expressed in µg/mL, is required.

Consider the following illustrative entries.
>>> number("GLRKRLRKFRNKIKEKLKKIGQKIQGLLPKLAPRTDY [Cap18]")
4
>>> number("KLRKLFRKLLKLIRKLLR [Cap11-1-18 m^2]")
8
>>> number("SWLSKTAKKLENSAKKRISEGIAIAIQGGPR [Cecropin P1]")
4

Note to self: MIC recorded for GLRKKFRKTRKRIQKLGRKIGKTGRKVWKAWREYGQIPYPCRI [Cap11] was 8
